# System: AR mRNA
# measurementNotes: Dose-dependent antisense inhibition of human AR in HuVEC cells (electroporation, qRT-PCR RTS3559, IC50)
# Type: cell-based
# testConditions: 1000.0 nM; HuVEC, ~16 h; Table 10
Oligonucleotides are written 5' to 3', each unit as a sugar letter and its base; * is a phosphorothioate linkage, no mark a phosphodiester; rarer units and linkages stand in square brackets, end groups in braces. Plain capitals give the bases only. e = 2'-O-(2-methoxyethyl) (MOE); k = constrained ethyl (cEt); [5mC] = 5-methylcytosine; d = 2'-deoxy (DNA)
Label scheme for percent inhibition of AR: lower than 80% is Not fulfilled, 80% and above is Fulfilled.

Entry 579667 (antisense eT*kT*kG*eA*eT*kT*kT*dA*dA*dT*dG*dG*dT*dT*kG*k[5mC]) [compound 579667] : is its percent inhibition of AR no less than 80%?
Not fulfilled

Entry to check: 569227 (antisense eT*eG*kA*kT*kT*dT*dA*dA*dT*dG*dG*dT*kT*kG*k[5mC]*eA) [compound 569227]
Not fulfilled

Entry to check: 569228 (antisense eT*eT*kG*kA*kT*dT*dT*dA*dA*dT*dG*dG*kT*kT*kG*e[5mC]) [compound 569228]
Fulfilled

Entry to check: 569236 (antisense eT*kG*kA*kT*dT*dT*dA*dA*dT*dG*dG*kT*kT*kG*e[5mC]*eA) [compound 569236]
Fulfilled
